B1: Protein S100-G, P02633 (parent)
chain: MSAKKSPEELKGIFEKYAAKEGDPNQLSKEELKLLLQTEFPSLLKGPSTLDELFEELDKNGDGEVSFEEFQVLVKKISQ

variants of: B1; settings: Bos taurus; pH 7; 25 °C; Urea; CD; Potassium phosphate 10 mM; structure 1IGV; whole UniProt chain shown
Would you mind labelling by denaturant m value? At or over 0.9 kcal/mol/M is Y, under is N.

[
  {
    "var": "F70W",
    "classification": "N"
  },
  {
    "var": "I77V",
    "classification": "Y"
  },
  {
    "var": "V74L",
    "classification": "N"
  },
  {
    "var": "F70A",
    "classification": "N"
  },
  {
    "var": "L27G",
    "classification": "Y"
  },
  {
    "var": "L32A",
    "classification": "Y"
  },
  {
    "var": "L10V",
    "classification": "Y"
  },
  {
    "var": "V65A",
    "classification": "N"
  },
  {
    "var": "L27A",
    "classification": "Y"
  },
  {
    "var": "V65G",
    "classification": "N"
  }
]
